Target of assay: P. falciparum apicoplast DNA polymerase (Pf-apPOL) (Plasmodium falciparum)
Sequence (Q8ILY1 entry or part of it): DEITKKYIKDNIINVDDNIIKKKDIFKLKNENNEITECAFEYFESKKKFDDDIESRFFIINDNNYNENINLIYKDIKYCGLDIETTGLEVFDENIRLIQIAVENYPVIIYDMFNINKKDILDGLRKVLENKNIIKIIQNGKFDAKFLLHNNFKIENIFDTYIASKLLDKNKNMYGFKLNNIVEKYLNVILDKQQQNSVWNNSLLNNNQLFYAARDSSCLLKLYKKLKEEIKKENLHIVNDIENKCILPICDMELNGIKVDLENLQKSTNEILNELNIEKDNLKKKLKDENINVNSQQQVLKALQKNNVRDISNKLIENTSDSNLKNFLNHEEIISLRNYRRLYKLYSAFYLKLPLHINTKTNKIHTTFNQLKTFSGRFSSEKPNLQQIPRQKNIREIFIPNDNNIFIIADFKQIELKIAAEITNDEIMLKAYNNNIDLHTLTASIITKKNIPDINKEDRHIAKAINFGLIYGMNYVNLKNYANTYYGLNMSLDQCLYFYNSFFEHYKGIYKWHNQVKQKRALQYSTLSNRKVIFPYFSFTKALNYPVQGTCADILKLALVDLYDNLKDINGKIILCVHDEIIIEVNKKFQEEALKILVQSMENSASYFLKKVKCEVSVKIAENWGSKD
Test protocol: Fluorescence-based high-throughput DNA polymerase assay (molecular beacon), primary screen and dose-response;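 note: compound concentration given in µM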
Format: biochemical
Experimental conditions: DRC-2; concentration 5; 40'
Attribute measured: % inhibition Apol 40'

>>> readout_value("Oc1cccnc1/N=C/c1cc(I)cc(I)c1O")
"33%"
>>> readout_value("O=C(O)c1nc(-c2ccccc2)nc2c1OCO2")
"14%"
>>> readout_value("O=C(Cn1ccc2c(=O)[nH]ccc21)Nc1ccccc1Cl [Molecule 19, O=C(Cn1ccc2c1cc[nH]c2=O)Nc1ccccc1Cl]")
"36%"
>>> readout_value("CCCN1COc2ccc3c(=O)c(-c4ccccc4)coc3c2C1")
"0.118%"
>>> readout_value("COc1ccc(-c2occ(C(=O)O)c2C(=O)O)cc1")
"30%"
>>> readout_value("O=C(O)c1cc([N+](=O)[O-])c(N2CCN(c3cccc(C(F)(F)F)c3)CC2)c([N+](=O)[O-])c1")
"17%"
>>> readout_value("COc1ccc(C=C2Oc3c(ccc4c3CN(Cc3ccco3)CO4)C2=O)c(OC)c1")
"3.41%"
>>> readout_value("O=C(Nc1c2c(nn1-c1ccccc1)CSC2)c1ccco1")
"36%"
>>> readout_value("Cc1cc(C)nc(Nc2nc(CC(=O)Nc3nc(-c4ccco4)cs3)cs2)n1")
"5.45%"
>>> readout_value("Cc1ccnc(NS(=O)(=O)c2ccc(-n3cccc3)cc2)n1")
"20%"
